The reported measurements were obtained from PubChem BioAssay (NCI).

Field: TGI. Provide a value for each of the molecules that follow.
# Tested on: EKVX NSCLC
# Test Description: NCI tumour cell line growth inhibition, 48 h

# count of solved cases: 4
Molecule | TGI
CCC1C(NC(=O)OC)C(=O)N1[C@@H](C)c1ccccc1 (stereo not given in full) | > 100 µM
O=C(Nc1ccc(Cl)c(C(F)(F)F)c1)Nc1ccc(-c2cccnc2)cc1N1CCC(CO)CC1 | > 100 µM
COc1cc(-n2cc(-c3ccc(Cl)cc3)n(-c3ccccc3)c2=O)cc(OC)c1OC | > 100 µM
CCc1cccc(C(C)C)c1NC(=O)/C(=N\NC(N)=O)C(C(=O)OC)c1cnc2ccccc2n1 (stereo not given) | > 100 µM

Now take the following molecule into account.
Form field TGI, entry NC(=O)c1cn(C2CC(O)C(CO)O2)c2ncnc(N)c12 (stereo not given) : > 23.2 µM
